- Read-out: Cytochrome P450 7A1 (Homo sapiens) (UniProt P22680)
- Method description: LTEA_HepaRG_CYP7A1: Life Technologies and Expression Analysis (LTEA) Assay for Cytochrome P450 7A1 (CYP7A1) using HepaRG (AID 2283496)
- Setup conditions: mRNA level, 48 h; actives raise or lower the signal
Activity calls are given as the source filed them. The calls were made as follows: active = hit-call score of the fitted dose curve at least 0.9, where 1 is the maximum; inactive = score below 0.9.
In this exercise, the only acceptable responses are active, inactive

// below: answered compounds
Compound | Class
COC(=O)CSc1cc(N=c2sc(=O)n3n2CCCC3)c(F)cc1Cl | inactive
CCCCOC(=O)C(C)Oc1ccc(Oc2ccc(C(F)(F)F)cn2)cc1 (stereo unspecified) | inactive
C=CCOC(Cn1ccnc1)c1ccc(Cl)cc1Cl (stereo unspecified) | active
O=C(Nc1ccc([N+](=O)[O-])cc1Cl)c1cc(Cl)ccc1O | active
CC(=O)[C@H]1CC[C@H]2[C@@H]3CCC4=CC(=O)CC[C@]4(C)[C@H]3CC[C@]12C | active

Read the next record carefully.
Assay result, entry CCCN(CCC)C(=O)SCC — outcome? inactive

----------
- Read-out: Interferon-gamma inducible Protein 10 (IP10), CXCL10 (gene 3627)
- Method description: BSK_BE3C_IP10: BioMAP Diversity Plus: BE3C Assay for Interferon-gamma inducible Protein 10 (IP10) Biomarker Activity (AID 2283034)
- Setup conditions: primary human bronchial epithelial cells; actives raise or lower the signal
Activity calls are given as the source filed them. The calls were made as follows: active = hit-call score of the fitted dose curve at least 0.9, where 1 is the maximum; inactive = score below 0.9.
I would appreciate it if you answered using one of these outcomes: YES (active), NO (inactive)

Compound | Class
CCCCOCCOCCOCc1cc2c(cc1CCC)OCO2 | NO
Oc1ccc(C(c2ccc(O)cc2)C(Cl)(Cl)Cl)cc1 | YES

How did this test come out for O=C(O)c1ccccc1 ? NO

What did this assay record as the result for COCCO ? NO

# fetch the recorded call for OB(O)O here NO

GET /call?item= CC(C)CCCCCCc1ccc(O)cc1 returns the recorded outcome of this test. YES

Lab log entry: COc1c(Cl)ccc(Cl)c1C(=O)O — outcome as called in the assay? NO

----------
- Method description: CCTE_Shafer_MEA_acute_synchrony_index: CCTE's Neural Acute Assay for Synchrony, Shafer Lab (AID 2284027);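 also: network synchrony index of spontaneous spiking in primary rat cortical neurons on MEAs; fitted for loss of signal so actives lower synchrony relative to DMSO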
Activity calls are given as the source filed them. Rule for the calls: active = hit-call score of the fitted dose curve at least 0.9, where 1 is the maximum; inactive = score below 0.9.
Write down the outcome that applies. Available outcomes: class 1 (active), class 0 (inactive)

Some solved cases for reference:
Molecule | Class
CCCN(CCC)c1c([N+](=O)[O-])cc(C(F)(F)F)c(N)c1[N+](=O)[O-] | class 0
CC(C)(c1ccc(O)cc1)c1ccc(O)cc1 | class 0
C#CCOC(=O)[C@@H](C)Oc1ccc(Oc2ncc(Cl)cc2F)cc1 | class 0
OB(O)O | class 0
CSC(=O)c1cccc2nnsc12 | class 0
CC(C)(C)[C@@H](O)[C@@H](Cc1ccc(Cl)cc1)n1cncn1 | class 0
O=C(Nc1ccc([N+](=O)[O-])cc1Cl)c1cc(Cl)ccc1O | class 1
Cc1nn(C)c(Oc2ccccc2)c1C=NOCc1ccc(C(=O)OC(C)(C)C)cc1 | class 1
C=CCOC(Cn1ccnc1)c1ccc(Cl)cc1Cl (configuration not stated) | class 1
CC1(C)C(C=C(Cl)Cl)C1C(=O)OCc1cccc(Oc2ccccc2)c1 (configuration not stated) | class 1

Name the outcome recorded for Oc1ccc(C(c2ccc(O)cc2)C(Cl)(Cl)Cl)cc1 in the assay. class 1

Kindly provide the recorded test outcome for the following molecule: CCNc1nc(N)nc(Cl)n1 class 0
